- experimental target: Peroxisome proliferator-activated receptor delta (Mus musculus)
- Sequence (P35396 whole entry): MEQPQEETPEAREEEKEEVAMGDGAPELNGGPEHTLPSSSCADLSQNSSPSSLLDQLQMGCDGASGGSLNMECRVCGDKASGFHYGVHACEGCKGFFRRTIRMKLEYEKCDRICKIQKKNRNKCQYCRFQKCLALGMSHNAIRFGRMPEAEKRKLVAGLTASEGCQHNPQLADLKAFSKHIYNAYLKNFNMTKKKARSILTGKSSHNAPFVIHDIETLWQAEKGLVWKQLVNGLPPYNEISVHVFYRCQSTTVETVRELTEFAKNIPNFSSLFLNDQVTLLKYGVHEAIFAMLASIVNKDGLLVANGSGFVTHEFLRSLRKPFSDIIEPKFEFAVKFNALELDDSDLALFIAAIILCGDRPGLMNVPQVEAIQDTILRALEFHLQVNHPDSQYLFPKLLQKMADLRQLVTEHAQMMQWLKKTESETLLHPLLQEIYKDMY
- experiment description: Transactivation of Gal4-fused mouse PPARdelta expressed in CHO cells co expressing pG5-Luc reporter
measured quantity: EC50

Cc1cc(CC(=O)O)cc(OCCC2CCN(c3nc4ccc(Cl)cc4s3)CC2)c1
151 nM
Cc1ccc(CC(=O)O)cc1OCCC1CCN(c2nc3ccc(Cl)cc3s2)CC1
71.2 nM
Cc1ccc(OCCC2CCN(c3nc4ccc(Cl)cc4s3)CC2)cc1CC(=O)O
830 nM
O=C(O)Cc1cccc(OCCC2CCN(c3nc4ccc(Cl)cc4s3)CC2)c1
1060 nM

# input Please report the measured EC50 for CCc1ccc(CC(=O)O)cc1OCCC1CCN(c2nc3ccc(Cl)cc3s2)CC1
# output 330 nM

###

- experiment description: Metabolic stability in rat liver microsomes assessed as parent compound remaining after 0.5 hrs relative to control
- Type: ADME, Microsome
- conditions: read-out: Stability
measured quantity: remaining at 0.5 h (%)
Give just the number in %; leave the unit off.

# input Please report the measured remaining at 0.5 h for Cc1ccc(CC(=O)O)cc1OCCC1CCN(c2nc3ccc(Cl)cc3s2)CC1
# output 101

###

- experimental target: Peroxisome proliferator-activated receptor delta (Homo sapiens, UniProt Q03181)
- Sequence (Q03181 whole entry, the tested form may be a part): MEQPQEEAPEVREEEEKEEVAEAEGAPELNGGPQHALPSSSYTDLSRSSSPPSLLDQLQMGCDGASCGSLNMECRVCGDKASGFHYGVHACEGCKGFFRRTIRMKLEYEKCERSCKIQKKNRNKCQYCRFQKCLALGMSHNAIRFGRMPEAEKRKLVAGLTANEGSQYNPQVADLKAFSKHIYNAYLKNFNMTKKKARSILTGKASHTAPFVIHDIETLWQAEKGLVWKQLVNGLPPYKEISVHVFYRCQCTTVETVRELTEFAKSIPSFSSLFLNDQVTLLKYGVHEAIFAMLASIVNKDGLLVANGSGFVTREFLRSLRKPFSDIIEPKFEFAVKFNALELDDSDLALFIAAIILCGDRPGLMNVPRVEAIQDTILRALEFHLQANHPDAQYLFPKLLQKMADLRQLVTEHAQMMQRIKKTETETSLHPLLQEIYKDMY
- experiment description: Transactivation of Gal4-fused human PPARdelta expressed in CHO cells co expressing pG5-Luc reporter
measured quantity: pEC50
Convention used: pEC50 is expressed as -log10 of the molar concentration.

These recorded examples may help you get a feel for the data.
CCc1ccc(CC(=O)O)cc1OCCC1CCN(c2nc3ccc(Cl)cc3s2)CC1
6.92
Cc1cc(CC(=O)O)cc(OCCC2CCN(c3nc4ccc(Cl)cc4s3)CC2)c1
7.03

# input Please report the measured pEC50 for Cc1ccc(OCCC2CCN(c3nc4ccc(Cl)cc4s3)CC2)cc1CC(=O)O
# output 6.96

###

- experimental target: Peroxisome proliferator-activated receptor alpha (Homo sapiens) (UniProt Q07869)
- Sequence (Q07869 whole entry, the tested form may be a part): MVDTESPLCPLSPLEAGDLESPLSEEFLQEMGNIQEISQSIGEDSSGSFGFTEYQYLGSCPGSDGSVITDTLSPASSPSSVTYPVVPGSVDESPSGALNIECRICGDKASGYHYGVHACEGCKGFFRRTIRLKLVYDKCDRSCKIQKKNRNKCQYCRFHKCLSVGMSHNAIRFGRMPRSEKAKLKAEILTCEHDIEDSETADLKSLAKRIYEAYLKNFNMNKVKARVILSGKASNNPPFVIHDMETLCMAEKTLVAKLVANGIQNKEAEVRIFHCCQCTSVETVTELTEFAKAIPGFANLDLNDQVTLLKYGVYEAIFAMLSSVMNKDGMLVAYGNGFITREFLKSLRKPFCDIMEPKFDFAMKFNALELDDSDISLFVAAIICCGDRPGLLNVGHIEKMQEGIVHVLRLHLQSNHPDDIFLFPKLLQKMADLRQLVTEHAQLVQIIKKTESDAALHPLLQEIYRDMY
- experiment description: Transactivation of Gal4-fused human PPARalpha expressed in CHO cells co expressing pG5-Luc reporter at 1 uM
- Type: cell-based
- conditions: filed as agonist
measured quantity: fold change (FC)
// return a plain number; no unit text

O=C(O)Cc1cccc(OCC2CCN(c3nc4ccc(Cl)cc4s3)CC2)c1
2.5
O=C(O)c1cccc(OCCC2CCN(c3nc4ccc(Cl)cc4s3)CC2)c1
7.5
O=C(O)CCC(=O)OCCC1CCN(c2nc3ccc(Cl)cc3s2)CC1
2.4
Cc1cc(SCc2sc(-c3ccc(C(F)(F)F)cc3)nc2C)ccc1OCC(=O)O [GW501516]
3.1
CN(CCOc1ccc(CC2SC(=O)NC2=O)cc1)c1ccccn1 (stereo unspecified)
1.2

# input Please report the measured fold change (FC) for O=C(O)CCC(=O)OCCN1CCN(c2nc3ccc(Cl)cc3s2)CC1
# output 1.5
